System: Spodoptera littoralis
Test: Spodoptera littoralis persistence test on sprayed cotton plants (increased safety profile / bio-degradability)
Assay type: in vivo
Settings: 12.5 ppm on cotton plants; leaves excised 10 days after treatment, 10 L3 larvae, mortality after 6 days incubation
endpoint.label: Control after 10 days/% (%)

• Cc1cc(C2=NOC(c3cc(Cl)cc(Cl)c3)(C(F)(F)F)C2)ccc1C(=O)NCC(=O)NCC(F)(F)F (stereo not drawn) [Compound 3-086 from EP1731512, reference compound] = 100
• Cc1cc(C2=NSC(c3cc(Cl)cc(Cl)c3)(C(F)(F)F)C2)ccc1C(=O)NCc1ccccn1 (stereo not drawn) = 25
• Cc1cc(C2=NOC(c3cc(Cl)cc(Cl)c3)(C(F)(F)F)C2)ccc1C(=O)NCc1ccccn1 (stereo not drawn) [Compound 1-061 from EP1731512, reference compound] = 100
• Cc1cc(C2=NSC(c3cc(Cl)cc(Cl)c3)(C(F)(F)F)C2)ccc1C(=O)NCC(=O)NCC(F)(F)F (stereo not drawn) = 60
• Cc1cc(C2=NOC(c3cc(Cl)cc(Cl)c3)(C(F)(F)F)C2)ccc1C(=O)NC1CS(=O)(=O)C1 (stereo not drawn) [Compound A10 from WO2009/080250, reference compound] = 100
• Cc1cc(C2=NSC(c3cc(Cl)cc(Cl)c3)(C(F)(F)F)C2)ccc1C(=O)NC1CS(=O)(=O)C1 (stereo not drawn) = 35

These entries and their values trace back to patent US9078444B2.
